Reference for the values: ChEMBL document CHEMBL4689842

- System: Fibroblast
- experimental_protocol: Multiplex assay against human fibroblast
- Format: toxicity, cell-based
- recorded_conditions: 24 h, 10 µM, compound concentration 10 uM, replicate 1
Response field label: string, one of 1.0 (Population Hoechst High Intensity Objects (%) strictly below 20%) or 0.0.

Look over these answered cases.
molecule	label
NC(=O)c1ccc2nc(-c3ccc(C4(N)CCC4)cc3)c(-c3ccccc3)n2n1	1.0
CCCCN(CC)c1nc(C)nc2c1c(C)cn2-c1c(C)cc(C)cc1C.Cl	0.0

Identify whether the molecule "N#CCNC(=O)c1ccc(-c2ccnc(Nc3ccc(N4CCOCC4)cc3)n2)cc1" records Population Hoechst High Intensity Objects (%) below 20%.
1.0

Identify whether the molecule "C[C@@H](Oc1cc(-n2cnc3ccc(CN4CCN(C)CC4)cc32)sc1C(N)=O)c1ccccc1C(F)(F)F" records Population Hoechst High Intensity Objects (%) below 20%.
0.0

Identify whether the molecule "C=CC(=O)Nc1cc(-n2c(=O)ccc3cnc4ccc(-c5ccc(NS(C)(=O)=O)cc5)cc4c32)ccc1C" records Population Hoechst High Intensity Objects (%) below 20%.
1.0

Identify whether the molecule CCCCCNC(=N)N/N=C/c1c[nH]c2ccc(OC)cc12.O=C(O)/C=C\C(=O)O [TEGASEROD MALEATE] records Population Hoechst High Intensity Objects (%) below 20%.
1.0

Identify whether the molecule "N#Cc1cccc(C(=O)Nc2cc(-c3ccccc3)nn2-c2ccccc2)c1" records Population Hoechst High Intensity Objects (%) below 20%.
1.0

Identify whether the molecule "CC[C@@]1(O)C(=O)OCc2c1cc1n(c2=O)Cc2cc3ccccc3nc2-1" records Population Hoechst High Intensity Objects (%) below 20%.
0.0
